Origin of values: the RNAGym collection of RNA variant scans (doi:10.7554/elife.80360)

B1: Hairpin Ribozyme (parent)
chain: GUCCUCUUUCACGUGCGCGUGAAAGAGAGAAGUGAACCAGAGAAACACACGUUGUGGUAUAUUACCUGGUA

Variants of: B1
Experiment: self-cleavage, relative activity (ratio to wild type); higher = more cleavage; co-transcriptional
ASSAY METRIC: self-cleavage
No unit in the answer, only the number.

Need self-cleavage of C3A C6G , thanks.
0.455
